Target: T1, MutS wild-type (Escherichia coli, UniProt P23909 1-853)
T1 sequence: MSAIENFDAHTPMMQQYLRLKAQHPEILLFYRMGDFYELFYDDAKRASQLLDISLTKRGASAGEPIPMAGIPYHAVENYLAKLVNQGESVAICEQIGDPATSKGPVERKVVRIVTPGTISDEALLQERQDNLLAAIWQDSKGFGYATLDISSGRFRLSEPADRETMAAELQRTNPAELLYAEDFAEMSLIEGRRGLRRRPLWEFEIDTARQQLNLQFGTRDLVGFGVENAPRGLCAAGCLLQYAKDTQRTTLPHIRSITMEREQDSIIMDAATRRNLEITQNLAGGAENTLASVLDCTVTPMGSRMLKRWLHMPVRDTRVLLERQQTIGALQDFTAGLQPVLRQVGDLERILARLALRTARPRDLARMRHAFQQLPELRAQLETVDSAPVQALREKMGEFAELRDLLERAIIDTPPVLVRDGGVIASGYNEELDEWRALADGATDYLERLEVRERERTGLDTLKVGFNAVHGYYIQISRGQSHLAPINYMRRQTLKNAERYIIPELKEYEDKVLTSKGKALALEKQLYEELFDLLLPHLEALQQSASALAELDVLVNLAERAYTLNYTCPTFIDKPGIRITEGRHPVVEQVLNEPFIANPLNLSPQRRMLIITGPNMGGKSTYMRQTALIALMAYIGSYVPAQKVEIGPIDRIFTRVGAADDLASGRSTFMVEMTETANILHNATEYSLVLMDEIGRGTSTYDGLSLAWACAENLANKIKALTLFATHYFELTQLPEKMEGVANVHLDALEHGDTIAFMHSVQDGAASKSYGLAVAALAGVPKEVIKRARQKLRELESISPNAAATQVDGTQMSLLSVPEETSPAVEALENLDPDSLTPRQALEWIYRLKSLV
Test: fluorescence anisotropy
Entries and their Kd values follow.

Example entries and their recorded answers appear below.
Exercise: What does the data say about its Kd? Entry: CP-GpG/CT cisplatinated mismatch 30mer (dsDNA, cisplatin 1,2-GpG intrastrand cross-link at G9-G10 of strand 1) DNA 1: ACCTGTCTGGCAACACTGTCACCGTCGTAT DNA 2: ATACGACGGTGACAGTGTTGCTAGACAGGT
Key: 360 nM

Exercise: How about CP-GpG/CC cisplatinated homoduplex 30mer (dsDNA, cisplatin 1,2-GpG intrastrand cross-link at G9-G10 of strand 1) DNA 1: ACCTGTCTGGCAACACTGTCACCGTCGTAT DNA 2: ATACGACGGTGACAGTGTTGCCAGACAGGT ?
Key: 1300 nM

// below: Kd requested for another binder
Exercise: What does the data say about its Kd? Entry: G/T mismatch heteroduplex 30mer (dsDNA) DNA 1: ACCTGTCTGGCAACACTGTCACCGTCGTAT DNA 2: ATACGACGGTGACAGTGTTGCTAGACAGGT
Key: 100 nM
